Test system: P388 leukemia ip, CD2F1 mice, survival T/C
experiment-description: NCI In Vivo Anticancer Drug Screen. Data for tumor model P388 Leukemia (intraperitoneal) in CD2F1 (CDF1) mice
assay-conditions: endpoint: median survival time; dose: 240.0 mg/kg/injection; schedule: Q01DX005 (ip); vehicle: saline; higher = longer survival
Toxic doses and inconclusive results are not listed.
property: T/C

COc1nc(NC2OC(CO)C(O)C(O)C2O)c(C=O)c(=O)n1C (stereo not given)
99 % of control

Please report T/C for every entry that follows.
1. CS(=O)(=O)CC1=NC(=N)N=C1CS(C)(=O)=O
2. COC(=O)C1(CC(=O)c2ccc(C)cc2)NC(=S)NC(=O)C1C#N (stereo not given)
3. NC1CCC[C@@H](O)[C@H]1O (stereo not given in full)

1: 96 % of control; 2: 100 % of control; 3: 98 % of control

Provide value of T/C for this record tested with P388 leukemia ip, CD2F1 mice, survival T/C: `Cc1cc(-c2cc(C)nc(N)n2)nc(N)n1`
108 % of control

---

System: P388 leukemia ip, CD2F1 mice, survival T/C
experiment-description: NCI In Vivo Anticancer Drug Screen. Data for tumor model P388 Leukemia (intraperitoneal) in CD2F1 (CDF1) mice
assay-conditions: endpoint: median survival time; dose: 50.0 mg/kg/injection; schedule: Q01DX005 (ip); vehicle: Klucel (hydroxypropylcellulose) (HPC); higher = longer survival
Toxic doses and inconclusive results are not listed. Peptide text beside a SMILES is read from it. * marks the point of attachment. Cbz = O=C(OCc1ccccc1)*
Exercise: for every item that follows, state its recorded T/C.

Below, each entry is followed by its recorded T/C result.
COc1ccc(C(C2C(=O)CC(C)(C)CC2=O)C2C(=O)CC(C)(C)CC2=O)cc1
104 % of control
Nc1cccc(C(=O)NCCNC(=O)c2cccc(N)c2O)c1O
98 % of control
Cc1c2occc2cc2c1oc(=O)c1cnccc12
105 % of control
COC(=O)CCSC(=S)NCc1ccccc1
98 % of control
NC(N)=N/N=C1/C=C2C/C(=N\N=C(N)N)C=C2C1
106 % of control
c1ccc(Nc2nn[nH]n2)cc1
109 % of control

Please report T/C for every entry that follows.
1. CC(C)C(NC(=O)C(Cc1cnc[nH]1)NC(=O)OCc1ccccc1)C(=O)O (stereo not drawn) (Cbz-His-Val-OH; configuration not given here)
2. O=[N+]([O-])c1ccc(SN2CCCCC2CC2CCCCC2)c([N+](=O)[O-])c1 (centres undefined)
3. CC/C=C/C(O)C(O)C1=C(C)C(=O)C2(O1)C(=O)NC(OC)(C(=O)c1ccccc1)C2O (centres undefined)
4. O[C@H]1CCN2CO[C@@H](c3ccccc3)C[C@H]2C1
5. Cc1ccc(C2=C3CCCCC3c3cc(C)ccc32)cc1 (centres undefined)
6. COc1ccc(C(=O)C(CCC(=O)c2ccc(O)cc2)S(C)(=O)=O)cc1 (centres undefined)

101 % of control
105 % of control
94 % of control
102 % of control
97 % of control
100 % of control

Please report T/C for every entry that follows.
1. COc1ccc2c(c1OC)C(=O)OC2C(=O)NCCc1ccc2c(c1)OCO2 (centres undefined)
2. OCC1OC(O)C(N=Cc2ccccc2O)C(O)C1O (centres undefined)
3. CCCCNCCC1(CCC(C)C)C(=O)NC(=O)NC1=O
4. c1ccc(C2C(c3nc4ccccc4o3)C(c3ccccc3)C2c2nc3ccccc3o2)cc1 (centres undefined)

1. 92 % of control
2. 104 % of control
3. 96 % of control
4. 91 % of control

Please report T/C for every entry that follows.
1. NC(N)=NCCCC(N)C(=O)NC(CCCN=C(N)N)C(=O)O (stereo not drawn) (H-Arg-Arg-OH; configuration not given here)
2. CC1=NN(c2ccccc2)[As]2ON=C(c3ccc(Cl)cc3)C12 (centres undefined)
3. COc1cc(CCC(C)=O)ccc1OC(=O)c1c(-c2c(F)cccc2Cl)noc1C
4. CC1NC(=O)N(Cc2ccccc2Cl)C1=O (centres undefined)
5. O=C(OCC(Cl)(Cl)Cl)N1[C@@H]2C=C[C@@H](N1C(=O)OCC(Cl)(Cl)Cl)[C@@]13CC(OCc4ccc(Br)cc4)CC21O3 (some centres undefined)
6. O=C1C=C(O)C2CCCCC2N1 (centres undefined)

["103 % of control", "102 % of control", "91 % of control", "110 % of control", "105 % of control", "99 % of control"]

Please report T/C for every entry that follows.
1. NC(=O)CCC(NS(=O)(=O)c1ccc(NC(=O)c2ccc(Cl)cc2)cc1)C(=O)O (centres undefined)
2. COc1ccc(N2C(=O)c3ccc4c5ccc6c7c(ccc(c8ccc(c3c48)C2=O)c75)C(=O)NC6=O)cc1
3. CCCCNC(=O)C(C)OC(=O)C(CC)CCCC (centres undefined)
4. CCCCOC(=O)/C=C/C(=O)N1CC(C)N(C(=O)/C=C/C(=O)OCCCC)CC1C (centres undefined)
5. O=C(NC[N+]12CCO[B-]1(c1cccc(Cl)c1)OCC2)c1ccccc1O (centres undefined)
6. Nc1ccc(S(=O)(=O)Nc2cnc3c(Cl)cccc3n2)cc1

["104 % of control", "90 % of control", "100 % of control", "105 % of control", "104 % of control", "108 % of control"]

Please report T/C for every entry that follows.
1. CC(C)(C)/C=C/N1N=NC(c2ccccc2)(c2ccccc2)C1=O
2. COc1c2occc2c(N=Cc2ccccn2)c2ccc(=O)oc12
3. Cc1cc(=S)c2cc3c(cc2[nH]1)OCO3
4. NC1(C(=O)O)CCc2ccccc2C1 (centres undefined)

91 % of control
90 % of control
107 % of control
104 % of control

Please report T/C for every entry that follows.
1. NC1=C(Br)C(=O)c2[nH]c(=O)[nH]c(=O)c2C1=O
2. COc1cc(-c2nn(CN3CCN(Cn4nc(-c5cc(OC)c(OC)c(OC)c5)oc4=S)CC3)c(=S)o2)cc(OC)c1OC

1: 100 % of control; 2: 97 % of control

---

Exercise: for every item that follows, state its recorded T/C.
Tested on: P388 leukemia ip, CD2F1 mice, survival T/C
experiment-description: NCI In Vivo Anticancer Drug Screen. Data for tumor model P388 Leukemia (intraperitoneal) in CD2F1 (CDF1) mice
assay-conditions: endpoint: median survival time; dose: 60.0 mg/kg/injection; schedule: Q01DX005 (ip); vehicle: Klucel (hydroxypropylcellulose) (HPC); higher = longer survival
Inconclusive results and toxic doses are left out.

Below, each entry is followed by its recorded T/C result.
CCCCN1C(=O)C(=C/C=C/C=C2\Oc3ccccc3N2CCCS(=O)(=O)O)C(=O)N(CCCC)C1=S
106 % of control
CC1(C)N=C(NN=C2CCCCC2)SP1(=O)NCC(=O)O (stereo not drawn)
101 % of control

Please report T/C for every entry that follows.
1. Cc1cccc(NC(=O)Nc2ccc(F)cc2)n1
2. COC(=O)C1(C(=O)Nc2ccccc2)N=N1
3. O=C1OC(c2ccccc2)N(c2ccccc2)C(=O)C1Cc1ccccc1 (stereo not drawn)
4. Cc1cc(C(F)(F)F)nc2nc3ccccc3n12
5. N=C(N)c1ccc(N=Nc2ccc(N)cc2N)cc1

1: 101 % of control; 2: 108 % of control; 3: 103 % of control; 4: 101 % of control; 5: 120 % of control

Give its T/C value. Item: COc1cc(C2c3cc4c(cc3OC3(O)C=C(C)OC(=O)C23)OCO4)cc(OC)c1OC (stereo not drawn)
94 % of control

---

Exercise: for every item that follows, state its recorded T/C.
Test system: P388 leukemia ip, CD2F1 mice, survival T/C
experiment-description: NCI In Vivo Anticancer Drug Screen. Data for tumor model P388 Leukemia (intraperitoneal) in CD2F1 (CDF1) mice
assay-conditions: endpoint: median survival time; dose: 25.0 mg/kg/injection; schedule: Q01DX009 (ip); vehicle: saline; higher = longer survival
Toxic doses and inconclusive results are not listed. Square brackets hold non-standard residues; d marks the D form. Peptide text beside a SMILES is read from it. Ac5c = NC1(C(=O)O)CCCC1

Below, each entry is followed by its recorded T/C result.
NCC(=O)NC1(C(=O)O)CCCC1 (H-Gly-[Ac5c]-OH)
118 % of control
CCN(CC)CCN(C)C(=O)C(O)(c1ccccc1)c1ccccc1
100 % of control

Then this compound:
Provide value of T/C for this record tested with P388 leukemia ip, CD2F1 mice, survival T/C: O=[N+]([O-])c1nccn1C1OC(CO)C(O)C1O (stereo not drawn)
104 % of control

---

Exercise: for every item that follows, state its recorded T/C.
Test system: P388 leukemia ip, CD2F1 mice, survival T/C
experiment-description: NCI In Vivo Anticancer Drug Screen. Data for tumor model P388 Leukemia (intraperitoneal) in CD2F1 (CDF1) mice
assay-conditions: endpoint: median survival time; dose: 200.0 mg/kg/injection; schedule: Q01DX005 (ip); vehicle: saline with Tween-80; higher = longer survival
Inconclusive results and toxic doses are left out.

COc1cc2c(OC)c(c1)CCCC1=CC(=O)C=C(CCC2)C1=O
100 % of control

Please report T/C for every entry that follows.
1. O=c1[nH]c(=O)c2cc3cn[nH]c3cc2[nH]1
2. COc1ccc(C(=O)Cc2cc(OC)c(OC)cc2Br)cc1OC

["101 % of control", "86 % of control"]

Every entry's value here was drawn from PubChem BioAssay AID330.
